The measured values listed here are drawn from patent US20210214758A1.

- Test system: Klebsiella isolates
- protocol-description: Antibiotic susceptibility of Klebsiella clinical isolates per 7-SNP clonotype (Lookup Table 1; disk diffusion)
- Assay type: cell-based, Klebsiella spp.
- condition-details: CT 230
quantity-measured: susceptibility, % (%)

[[record]]
structure_as_smiles = "CC1(C)S[C@@H]2[C@H](NC(=O)[C@H](N)c3ccccc3)C(=O)N2[C@H]1C(=O)O"
target_or_test_system = "Klebsiella isolates"
quantity_measured = "susceptibility, %"
quantity_unit = "%"
measured = 0

[[record]]
structure_as_smiles = "CN(C)[C@@H]1C(O)=C(C(N)=O)C(=O)[C@@]2(O)C(O)=C3C(=O)c4c(O)cccc4[C@@](C)(O)[C@H]3C[C@@H]12"
target_or_test_system = "Klebsiella isolates"
quantity_measured = "susceptibility, %"
quantity_unit = "%"
measured = 0

[[record]]
structure_as_smiles = "C[C@@H](O)[C@H]1C(=O)N2C(C(=O)O)=C(SCCN=CN)C[C@H]12"
target_or_test_system = "Klebsiella isolates"
quantity_measured = "susceptibility, %"
quantity_unit = "%"
measured = 100

[[record]]
structure_as_smiles = "C[C@@H]1O[C@@H]1P(=O)(O)O"
target_or_test_system = "Klebsiella isolates"
quantity_measured = "susceptibility, %"
quantity_unit = "%"
measured = 100

[[record]]
structure_as_smiles = "O=C1CN(/N=C/c2ccc([N+](=O)[O-])o2)C(=O)N1"
target_or_test_system = "Klebsiella isolates"
quantity_measured = "susceptibility, %"
quantity_unit = "%"
measured = 0

